# System: SF-539 CNS
# Assay Protocol: NCI tumour cell line growth inhibition, 48 h; in the data active = GI50 below about 0.43 µM; inactive = the rest
Pick one: active, inactive

Cc1cc(C(=O)NOCCO)c(Nc2ccc(I)cc2F)n(C)c1=O	inactive
CC(=O)Nc1ccc2c(c1)[nH]c(=O)c1cc(NC(C)=O)ccc12	inactive
c1ccc2c(c1)CCCc1nnc3nc4ccccc4n3c1-2	inactive

Entry O=[N+]([O-])c1ccc(NC(c2ccccc2)c2ccc3cccnc3c2O)cc1 (configuration not stated) : call = ?
inactive

What is the recorded call for this compound in the test? COC1C[C@H](O[C@@H]2C[C@H](O[C@@H]3C[C@H](O[C@@H]4C(=O)c5c(cc6cc(O[C@H]7C[C@@H](O[C@H]8C[C@@H](O)[C@H](O)C(C)O8)[C@H](O)C(C)O7)c(C)c(O)c6c5O)C[C@H]4C(OC)C(=O)[C@@H](O)[C@@H](C)O)OC(C)[C@H]3O)OC(C)[C@@H]2O)OC(C)[C@@H]1O (some centres not stated)
active

I'd appreciate the recorded outcome for CC(=O)OCc1cc[c]([Hg][Cl])o1 from this test.
inactive

Assay outcome for CS(=O)(=O)Nc1cc(-c2ccc3ncnc(Nc4ccc(OCc5ccccn5)c(Cl)c4)c3c2)cnc1Cl : what was it?
active

Record lookup: outcome of this test for O=C(O)[C@@H](Cc1ccccc1)NS(=O)(=O)c1ccc(-c2ccccc2)cc1 ?
inactive

// param item: CN1c2cccc[c]2[Sn]([CH3])([CH3])[c]2ccccc21 ; yields the recorded call
active

Kindly provide the recorded test outcome for the following compound: COc1cc(N2CCN(C(C)C)CC2)ccc1Nc1nc(Nc2ccc(F)cc2C(N)=O)c2cc[nH]c2n1
inactive

Please indicate how the test categorized COc1cc(-c2cc(-c3ccc(Nc4nc(Nc5ccc(Cl)cc5)nc(Nc5ccc(Cl)cc5)n4)cc3)no2)cc(OC)c1OC .
inactive

So what was the verdict on C#Cc1cccc(NC(=O)C2CCCCN2C(=O)CCl)c1 (configuration not stated) in this test?
inactive
